Biological target: Histone deacetylase 8 (Homo sapiens, UniProt Q9BY41)
Sequence (Q9BY41 whole entry): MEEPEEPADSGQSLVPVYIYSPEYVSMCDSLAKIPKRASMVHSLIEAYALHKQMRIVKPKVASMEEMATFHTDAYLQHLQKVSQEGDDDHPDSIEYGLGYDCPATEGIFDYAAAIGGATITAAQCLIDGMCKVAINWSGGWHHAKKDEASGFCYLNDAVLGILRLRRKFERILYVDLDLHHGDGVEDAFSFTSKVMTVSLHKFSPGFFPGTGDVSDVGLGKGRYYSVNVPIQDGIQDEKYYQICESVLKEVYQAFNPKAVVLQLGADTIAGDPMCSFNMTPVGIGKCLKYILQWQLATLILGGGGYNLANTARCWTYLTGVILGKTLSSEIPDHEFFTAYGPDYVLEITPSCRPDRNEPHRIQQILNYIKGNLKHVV
// cross-source set; read-out = pKi; system = Histone deacetylase 8 (Homo sapiens, UniProt Q9BY41)
Conceptually, pKi converts a concentration in mol/L into minus its log10.

Example results:
| compound | test-target | quantitative-readout |
| --- | --- | --- |
| CCC(C)Oc1ccc(/C=C/C(=O)/C=C(O)/C=C/c2ccc(OC(C)CC)c(OC)c2)cc1OC (stereo not drawn) | Histone deacetylase 8 (Homo sapiens, UniProt Q9BY41) | 4.99 |
| CCCCCCc1nc2cc(/C=C/C(=O)NO)ccc2n1CCNC(C)C | Histone deacetylase 8 (Homo sapiens, UniProt Q9BY41) | 7.24 |
| CCC(C)Oc1ccc(/C=C/C(O)=C/C(=O)/C=C/c2ccc(O)c(OC)c2)cc1 (stereo not drawn) | Histone deacetylase 8 (Homo sapiens, UniProt Q9BY41) | 5.44 |

What does the record list as pKi for CC/C=C\CCc1nc2cc(/C=C/C(=O)NO)ccc2n1CCNCC ?
7.26

What does the record list as pKi for O=C(O)CCCCCCC(=O)Nc1ccc([C@H]2O[C@@H](CSc3nc(-c4ccccc4)c(-c4ccccc4)o3)C[C@@H](c3ccc(CO)cc3)O2)cc1 ?
6.12
